assay: in vitro; settings: rat, plasma
Observable: half-life

Entry `Cc1cc(C(=O)Nc2cccc([C@H](C)Cc3nncn3C)c2)nc(C2CC2)n1` has what half-life? 2.72 h

Entry `Cc1cc(C(=O)Nc2cccc(C3(Cc4nncn4C)COC3)c2)nc(C2CC2)n1` has what half-life? > 16.7 h

###

pIC50: −log10 of the molar value.
Target or system E3 ubiquitin-protein ligase CBL-B (Homo sapiens, UniProt Q13191): recorded pIC50 listed per item.

Entry `C[C@@H]1CN(Cc2cc3c(c(C(F)(F)F)c2)CN(c2cccc(C4(c5nncn5C)CC(F)(F)C4)c2)C3=O)CCO1` has what pIC50? ≥ 8.30

Entry Cn1cnnc1CC1(c2cccc(N3Cc4c(cc(CN5CCCC(CC#N)C5)cc4C(F)(F)F)C3=O)c2)COC1 (centres undefined) has what pIC50? 9.00

Entry `Cc1cc(C(=O)Nc2cccc(C3(Cc4nocc4C)COC3)c2)nc(C2CC2)n1` has what pIC50? > 7.00

Entry `C[C@H]1CCCN(Cc2cc3c(c(C(F)(F)F)c2)CN(c2cccc([C@]4(Cc5nncn5C)C[C@@H](C#N)C4)c2)C3=O)C1` has what pIC50? > 9.00

Data origin, for the record: ChEMBL document CHEMBL5537167
